We begin with a simple list: items and their reported Emax.
- Tested on: c-myc in 22RV-1 cells
- method.description: Human c-myc ELISA assay
- Type: cell-based
- measurement.conditions: Homo sapiens, 22Rv1, 18 h, read-out: Degradation of BRD4: Maximum inhibition (%) c-Myc ELISA in 22RV1 cells
// note: answer is a bare numeric in %

Reference set (2 entries):
1) Cc1ncsc1-c1ccc([C@H](C)NC(=O)[C@@H]2C[C@@H](O)CN2C(=O)[C@H](C(C)C)n2cc(-c3cc(F)cc(O[C@H]4C[C@@H](NC(=O)C[C@@H]5N=C(c6ccc(Cl)cc6)c6c(sc(C)c6C)-n6c(C)nnc65)C4)c3)cn2)cc1 :: 97.5
2) Cc1ncsc1-c1ccc([C@H](C)NC(=O)[C@@H]2C[C@@H](O)CN2C(=O)[C@@H](NC(=O)c2cc3ccc(O[C@H]4C[C@H](NC(=O)C[C@@H]5N=C(c6ccc(Cl)cc6)c6c(sc(C)c6C)-n6c(C)nnc65)C4)cc3o2)C(C)(C)C)cc1 :: 100

Q: Reported Emax for c-myc in 22RV-1 cells, given Cc1ncsc1-c1ccc([C@H](C)NC(=O)[C@@H]2C[C@@H](O)CN2C(=O)[C@@H](NC(=O)CCc2ccc(O[C@H]3C[C@@H](NC(=O)C[C@@H]4N=C(c5ccc(Cl)cc5)c5c(sc(C)c5C)-n5c(C)nnc54)C3)nc2)C(C)(C)C)cc1 ?
Ans: 97

Q: Query the reported Emax for c-myc in 22RV-1 cells; item: Cc1sc2c(c1C)C(c1ccc(Cl)cc1)=N[C@@H](CC(=O)N[C@H]1C[C@H](Oc3ccc(CC(=O)N[C@H](C(=O)N4C[C@H](O)C[C@H]4C(=O)N[C@@H](C)c4ccc(-c5cnnn5C)cc4)C(C)(C)C)cc3)C1)c1nnc(C)n1-2
Ans: 16.1
